Target: Adrenergic receptor alpha-1 (Rattus norvegicus, UniProt P15823+P23944+P43140)
Assay: In vitro inhibitory concentration against radioligand [3H]prazosin binding to alpha-1 adrenergic receptor in rat cortical membrane.
Assay type: cell membranes
Reported endpoint: log10 of IC50 (log10 of the value in nM)
A value of 2 here means IC50 of 100 in nM, since values are log10.

Study these solved cases before continuing.
Query smiles: COc1ccccc1N1CCN(CCCSc2nc3sc(C)c(C)c3c(=O)n2C)CC1
Number: 1.43
--
Query smiles: Cc1sc2nc(SCCCN3CCN(c4ccccc4Cl)CC3)nc(O)c2c1C
Number: 2.21
--
Query smiles: COc1ccccc1N1CCN(CCCSc2nc(O)c3c(C)c(C)sc3n2)CC1
Number: 1.60
--
Query smiles: Oc1nc(SCCCN2CCN(c3ccccc3Cl)CC2)nc2sc3c(c12)CCCC3
Number: 2.23
--
Query smiles: Oc1nc(SCCCN2CCN(c3ncccn3)CC2)nc2sc3c(c12)CCCC3
Number: 3.26
--
Query smiles: Oc1nc(SCCCN2CCN(c3cccc4ccccc34)CC2)nc2sc3c(c12)CCCC3
Number: 2.65
--
Query smiles: COc1ccccc1N1CCN(CCCSc2nc3sc4c(c3c(=O)n2C)CCCC4)CC1
Number: 1.81
--
Query smiles: Cc1sc2nc(SCCCN3CCN(c4ncccn4)CC3)n(N)c(=O)c2c1C
Number: 2.70

Please fill in: log10 of IC50 reported for "Cc1sc2nc(SCCCN3CCN(c4ccccc4)CC3)n(N)c(=O)c2c1C" = 1.63

Please fill in: log10 of IC50 reported for "COc1ccccc1N1CCN(CCCSc2nc3sc(C)c(C)c3c(=O)n2Nc2ccccc2)CC1" = 1.51

Please fill in: log10 of IC50 reported for "COc1ccccc1N1CCN(CCCSc2nc3sc4c(c3c(=O)n2N)CCCC4)CC1" = 1.59

Please fill in: log10 of IC50 reported for "COc1ccccc1N1CCN(CCSc2nc(O)c3c4c(sc3n2)CCCC4)CC1" = 1.30

Please fill in: log10 of IC50 reported for "COc1ccccc1N1CCN(CCCSc2nc(O)c3cc(-c4ccccc4)sc3n2)CC1" = 2.35

Please fill in: log10 of IC50 reported for "COc1ccccc1N1CCN(CCCSc2nc(O)c3c(n2)sc2ccccc23)CC1" = 1.96

Please fill in: log10 of IC50 reported for "COc1ccccc1N1CCN(CCCOc2nc(SC)nc3sc4c(c23)CCCC4)CC1" = 1.88

Please fill in: log10 of IC50 reported for "COc1ccccc1N1CCN(CCCSc2nc3ccccc3c(=O)n2N)CC1" = 0.60

Please fill in: log10 of IC50 reported for "Oc1nc(SCCCN2CCN(c3cccc4ccccc34)CC2)nc2sc(-c3ccccc3)cc12" = 3.39

====

Target: UniProtKB P14842
Sequence (P14842 whole entry): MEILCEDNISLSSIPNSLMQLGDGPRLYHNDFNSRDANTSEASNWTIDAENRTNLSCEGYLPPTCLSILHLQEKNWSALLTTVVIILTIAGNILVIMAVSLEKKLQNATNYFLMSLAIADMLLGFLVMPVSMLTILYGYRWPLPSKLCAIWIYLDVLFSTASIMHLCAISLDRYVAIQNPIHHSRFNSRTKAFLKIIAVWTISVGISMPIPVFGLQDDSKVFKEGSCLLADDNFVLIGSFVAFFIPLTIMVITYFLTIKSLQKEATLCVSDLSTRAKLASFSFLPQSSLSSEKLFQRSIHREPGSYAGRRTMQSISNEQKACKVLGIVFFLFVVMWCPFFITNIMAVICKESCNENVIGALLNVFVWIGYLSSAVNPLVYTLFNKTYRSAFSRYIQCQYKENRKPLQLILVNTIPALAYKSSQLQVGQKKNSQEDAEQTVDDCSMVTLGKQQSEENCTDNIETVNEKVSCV
Experiment: In vitro inhibitory concentration against radioligand [3H]ketanserin binding to 5-hydroxytryptamine 2A receptor in rat cortical membrane
Format: cell membranes
Reported endpoint: IC50 (nM)
// units = nM; emit number, no label

Query smiles: COc1ccccc1N1CCN(CCCSc2nc3sc(C)c(C)c3c(=O)n2N)CC1
IC50 (nM): 300

Query smiles: COc1ccccc1C1CCN(CCCSc2nc3sc(C)c(C)c3c(=O)n2N)CC1
IC50 (nM): 300

Let us move to another entry and its IC50.
With UniProtKB P14842 as the test system, "Cc1sc2nc(SCCCN3CCN(c4ncccn4)CC3)n(N)c(=O)c2c1C" showed IC50 of 1000

====

Biological target: Serotonin 1a (5-HT1a) receptor/Adrenergic receptor alpha-1 (Rattus norvegicus) (UniProt P15823+P23944+P43140+P19327)
Experiment: Selectivity for alpha-1-adrenergic receptor to that of 5-HT1A receptor.
Assay type: protein assay
Reported endpoint: Selectivity
Keep it simple and answer with nothing but the number.

Study these solved cases before continuing.
Query smiles: COc1ccccc1N1CCN(CCCSc2nc3sc4c(c3c(=O)n2N)CCCC4)CC1
Selectivity: 30
//
Query smiles: COc1ccccc1N1CCN(CCc2nn3c(=O)c4c(C)c(C)sc4nc3s2)CC1
Selectivity: 3
//
Query smiles: COc1ccccc1N1CCN(CCCSc2nc3sc(C)c(C)c3c(=O)n2Nc2ccccc2)CC1
Selectivity: 0.06

Please fill in: Selectivity reported for "COc1ccccc1N1CCN(CCSc2nc(O)c3c4c(sc3n2)CCCC4)CC1" = 0.2

Please fill in: Selectivity reported for "COc1ccccc1N1CCN(CCCn2c(SC)nc3sc4c(c3c2=O)CCCC4)CC1" = 0.2

Please fill in: Selectivity reported for "Cc1sc2nc(SCCCN3CCN(c4cccc5ccccc45)CC3)nc(O)c2c1C" = 2.5

Please fill in: Selectivity reported for "Oc1nc(SCCCN2CCN(c3ncccn3)CC2)nc2sc3c(c12)CCCC3" = 3.5

Please fill in: Selectivity reported for "Cc1sc2nc(SCCCN3CCN(c4ccccc4Cl)CC3)nc(O)c2c1C" = 0.35

Please fill in: Selectivity reported for "Cc1sc2nc(SCCCN3CCN(c4ccccc4)CC3)n(N)c(=O)c2c1C" = 13

Please fill in: Selectivity reported for "COc1ccccc1N1CCN(CCCSc2nc(O)c3c(C)c(C)sc3n2)CC1" = 2

Please fill in: Selectivity reported for "COc1ccccc1N1CCN(CCCSc2nc3sc4c(c3c(=O)n2C)CCCC4)CC1" = 9

====

Target: 5-hydroxytryptamine receptor 1A (Rattus norvegicus, UniProt P19327)
Sequence (P19327 whole entry): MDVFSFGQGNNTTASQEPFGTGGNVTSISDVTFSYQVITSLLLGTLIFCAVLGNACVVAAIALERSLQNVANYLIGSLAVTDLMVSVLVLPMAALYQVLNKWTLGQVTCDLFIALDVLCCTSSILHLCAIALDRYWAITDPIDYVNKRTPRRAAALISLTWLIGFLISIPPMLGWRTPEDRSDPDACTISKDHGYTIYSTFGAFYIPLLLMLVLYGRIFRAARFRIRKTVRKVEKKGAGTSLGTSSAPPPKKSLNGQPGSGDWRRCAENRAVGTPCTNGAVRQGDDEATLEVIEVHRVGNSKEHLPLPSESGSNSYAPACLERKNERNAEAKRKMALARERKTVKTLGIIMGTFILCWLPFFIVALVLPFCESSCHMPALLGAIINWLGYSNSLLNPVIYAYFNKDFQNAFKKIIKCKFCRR
Test: In vitro inhibitory concentration against radioligand [3H]8-OH-DPAT binding to 5-hydroxytryptamine 1A receptor in rat hippocampal membrane.
Recorded IC50 for the following compounds
// units = nM; emit number, no label

Study these solved cases before continuing.
Query smiles: O=c1[nH]c(SCCCN2CCN(c3cccc4ccccc34)CC2)nc2sc(-c3ccccc3)cc12
IC50 (nM): 2010
//
Query smiles: COc1ccccc1N1CCN(CCCSc2nc3ccccc3c(=O)n2N)CC1
IC50 (nM): 0.5
//
Query smiles: COc1ccccc1N1CCN(CCc2nn3c(=O)c4c(C)c(C)sc4nc3s2)CC1
IC50 (nM): 42

Let us move to another entry and its IC50.
Please fill in: IC50 reported for "COc1ccccc1N1CCN(CCCSc2nc3sc4c(c3c(=O)[nH]2)CCCC4)CC1" = 59

====

Recorded IC50 for the following compounds
Biological target: Adrenergic receptor alpha-1 (Rattus norvegicus, UniProt P15823+P23944+P43140)
Sequence (P15823 whole entry): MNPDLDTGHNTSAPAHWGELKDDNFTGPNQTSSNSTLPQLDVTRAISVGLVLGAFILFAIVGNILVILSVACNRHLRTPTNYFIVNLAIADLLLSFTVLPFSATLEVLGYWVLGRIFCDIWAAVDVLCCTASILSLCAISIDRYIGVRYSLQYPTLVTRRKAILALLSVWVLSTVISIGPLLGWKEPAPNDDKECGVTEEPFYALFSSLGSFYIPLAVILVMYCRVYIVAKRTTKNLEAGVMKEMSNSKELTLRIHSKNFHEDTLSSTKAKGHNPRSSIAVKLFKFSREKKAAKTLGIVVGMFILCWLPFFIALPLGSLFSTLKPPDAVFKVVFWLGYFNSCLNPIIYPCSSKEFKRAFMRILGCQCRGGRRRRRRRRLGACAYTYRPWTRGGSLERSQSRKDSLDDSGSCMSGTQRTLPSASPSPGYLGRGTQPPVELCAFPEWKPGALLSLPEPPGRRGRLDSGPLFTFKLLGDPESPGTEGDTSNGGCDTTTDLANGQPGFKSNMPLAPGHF
Sequence (P23944 whole entry): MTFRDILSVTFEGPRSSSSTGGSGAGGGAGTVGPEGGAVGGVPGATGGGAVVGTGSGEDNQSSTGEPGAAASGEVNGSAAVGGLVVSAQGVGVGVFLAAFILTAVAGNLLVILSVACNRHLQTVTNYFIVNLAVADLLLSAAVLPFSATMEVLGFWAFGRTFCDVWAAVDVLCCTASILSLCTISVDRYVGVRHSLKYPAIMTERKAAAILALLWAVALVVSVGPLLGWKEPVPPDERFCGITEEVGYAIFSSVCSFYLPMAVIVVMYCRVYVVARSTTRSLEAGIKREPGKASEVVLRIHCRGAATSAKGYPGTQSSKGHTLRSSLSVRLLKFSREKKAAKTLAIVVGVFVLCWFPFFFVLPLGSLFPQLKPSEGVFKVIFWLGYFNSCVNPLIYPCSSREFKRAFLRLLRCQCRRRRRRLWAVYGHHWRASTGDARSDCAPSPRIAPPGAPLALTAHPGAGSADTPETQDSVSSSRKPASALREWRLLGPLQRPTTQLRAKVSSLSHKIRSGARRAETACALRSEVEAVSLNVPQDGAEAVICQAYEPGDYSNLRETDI
Sequence (P43140 whole entry): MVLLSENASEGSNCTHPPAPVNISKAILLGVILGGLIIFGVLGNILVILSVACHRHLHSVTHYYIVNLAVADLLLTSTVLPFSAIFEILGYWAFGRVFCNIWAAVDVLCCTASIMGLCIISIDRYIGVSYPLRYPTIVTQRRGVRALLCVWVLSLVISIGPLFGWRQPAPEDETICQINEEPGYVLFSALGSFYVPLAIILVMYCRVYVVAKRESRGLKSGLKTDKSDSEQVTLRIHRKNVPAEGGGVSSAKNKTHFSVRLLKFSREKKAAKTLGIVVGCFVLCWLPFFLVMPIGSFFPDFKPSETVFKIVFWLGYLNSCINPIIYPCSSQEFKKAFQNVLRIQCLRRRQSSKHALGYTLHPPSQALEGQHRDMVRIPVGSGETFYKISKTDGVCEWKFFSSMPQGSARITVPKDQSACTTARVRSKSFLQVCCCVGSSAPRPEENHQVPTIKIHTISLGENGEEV
Assay: In vitro inhibitory concentration against radioligand [3H]prazosin binding to alpha-1 adrenergic receptor in rat cortical membrane.
Format: cell membranes
// units = nM; emit number, no label

Study these solved cases before continuing.
Query smiles: COc1ccccc1N1CCN(CCCSc2nc3sccc3c(=O)n2N)CC1
Number: 2.9
--
Query smiles: COc1ccccc1N1CCN(CCCn2c(SC)nc3sc4c(c3c2=O)CCCC4)CC1
Number: 95

Let us move to another entry and its IC50.
Please fill in: IC50 reported for "Cc1sc2nc(SCCCN3CCN(c4cccc5ccccc45)CC3)nc(O)c2c1C" = 886

Ref: ChEMBL document CHEMBL1129944
